Would you kindly list inhibition in vivo at 10000 µg/mL, 100 mg/kg for each of these compounds?
System: Balb/c mice
Measurement Notes: Prevention of concanavalin A liver injury
Assay type: in vivo, mouse
Assay Conditions: Mus musculus, po, 24 h, 10 mg/mL suspension at 10 mL/kg, 30 min prior to Con A, plasma 24 hr after Con A, read-out: Preventing rate against liver injury, AST (%)

See these solved cases before continuing.
CCCCCc1ccc(NC(=O)c2cc([N+](=O)[O-])ccc2Cl)cc1 [Example 16]
21.4%
CN(C)c1ccc(-c2ccc(NC(=O)c3cc([N+](=O)[O-])ccc3Cl)cc2)cc1 [Example 53]
1.7%
CC(=O)c1cccc(NC(=O)c2cc([N+](=O)[O-])ccc2Cl)c1 [Example 156]
82.6%
O=C(Nc1nccc2ccccc12)c1cc([N+](=O)[O-])ccc1Cl [Example 59]
20.5%
O=C(Nc1ccc(-c2ccccn2)cc1)c1cc([N+](=O)[O-])ccc1Cl [Example 8]
56%

Give measured inhibition in vivo at 10000 µg/mL, 100 mg/kg for every item shown.
1. O=C(Nc1ccc(N2CCCCC2)cc1)c1cc([N+](=O)[O-])ccc1Cl [Example 114]
2. COc1cnc(NS(=O)(=O)c2ccc(NC(=O)c3cc([N+](=O)[O-])ccc3Cl)cc2)nc1 [Example 105]
3. O=C(Nc1ccc(OC(F)(F)F)cc1)c1cc([N+](=O)[O-])ccc1Cl [Example 18]

Result ::
1. 50.5%
2. 27.5%
3. 24.1%

Items follow; give inhibition in vivo at 10000 µg/mL, 100 mg/kg for each.
1. O=C(Nc1ccc(S(=O)(=O)Nc2cccnc2)cc1)c1cc([N+](=O)[O-])ccc1Cl [Example 178]
2. CC(C)(C)c1cc(-c2csc(NC(=O)c3cc([N+](=O)[O-])ccc3Cl)n2)cc(C(C)(C)C)c1O [Example 139]
3. Cc1ccc(NS(=O)(=O)c2cccc(NC(=O)c3cc([N+](=O)[O-])ccc3Cl)c2)cc1 [Example 142]
4. CCCc1ccc(NC(=O)c2cc([N+](=O)[O-])ccc2Cl)cc1 [Example 15]
5. CC(=O)Nc1ccc(-c2ccc(NC(=O)c3cc([N+](=O)[O-])ccc3Cl)cc2)cc1 [Example 118]
6. O=C(Nc1ccncc1)c1cc([N+](=O)[O-])ccc1Cl [Example 49]

Result ::
1: 64.5%; 2: 48.4%; 3: 63%; 4: 54%; 5: 45%; 6: 61%

* * *

Test system: Rat white adipocytes
Measurement Notes: Inhibition of the differentiation of adipocytes (Oil Red O)
Type: cell-based
Assay Conditions: Rattus norvegicus, Adipocyte, 120 h, 100 nM test compound; 5 days; Oil Red O ABS550; control = 100%, blank = 0%; Table 3; read-out: Rate of Differentiation (%)
Entries are sorted into classes by activity at 0.1 µM as follows: lower level = under 40%, middle level = from 40% up to 50%, upper level = 50% and over

Reference set (4 entries):
CCCCN(C)c1ccc(-c2ccc(NC(=O)c3cc([N+](=O)[O-])ccc3Cl)cc2)cc1 [Example 210]
middle level
CCS(=O)(=O)N(c1ccc(-c2ccc(NC(=O)c3cc([N+](=O)[O-])ccc3Cl)cc2)cc1)S(=O)(=O)CC [Example 276]
lower level
O=C(NCc1ccccc1)Nc1ccc(-c2ccc(NC(=O)c3cc([N+](=O)[O-])ccc3Cl)cc2)cc1 [Example 248]
upper level
O=C(Nc1cccc(CCO)c1)c1cc([N+](=O)[O-])ccc1Cl [Example 275]
middle level

Query :: # bin label for CCOC(=O)NC(=O)Nc1ccc(-c2ccc(NC(=O)c3cc([N+](=O)[O-])ccc3Cl)cc2)cc1 [Example 244]
Result :: middle level

Query :: Entry O=C(Nc1ccc(NC(=S)Nc2cccnc2)cc1)c1cc([N+](=O)[O-])ccc1Cl [Example 257] belongs to which category?
Result :: upper level

Query :: Any idea which band CCCCCCCCN(C)c1ccc(-c2ccc(NC(=O)c3cc([N+](=O)[O-])ccc3Cl)cc2)cc1 [Example 226] is in?
Result :: middle level

Query :: Using the reported activity at 0.1 µM, which band applies to O=C(Nc1ccc(-c2ccc(N3CCCCC3)cc2)cc1)c1cc([N+](=O)[O-])ccc1Cl [Example 177] ?
Result :: lower level

Query :: Please report the category associated with CCCCCN(CCCC)c1ccc(-c2ccc(NC(=O)c3cc([N+](=O)[O-])ccc3Cl)cc2)cc1 [Example 206] , nothing else.
Result :: lower level

* * *

Assayed Target: human PPAR γ 2 (Homo sapiens)
Sequence (P37231 1-505): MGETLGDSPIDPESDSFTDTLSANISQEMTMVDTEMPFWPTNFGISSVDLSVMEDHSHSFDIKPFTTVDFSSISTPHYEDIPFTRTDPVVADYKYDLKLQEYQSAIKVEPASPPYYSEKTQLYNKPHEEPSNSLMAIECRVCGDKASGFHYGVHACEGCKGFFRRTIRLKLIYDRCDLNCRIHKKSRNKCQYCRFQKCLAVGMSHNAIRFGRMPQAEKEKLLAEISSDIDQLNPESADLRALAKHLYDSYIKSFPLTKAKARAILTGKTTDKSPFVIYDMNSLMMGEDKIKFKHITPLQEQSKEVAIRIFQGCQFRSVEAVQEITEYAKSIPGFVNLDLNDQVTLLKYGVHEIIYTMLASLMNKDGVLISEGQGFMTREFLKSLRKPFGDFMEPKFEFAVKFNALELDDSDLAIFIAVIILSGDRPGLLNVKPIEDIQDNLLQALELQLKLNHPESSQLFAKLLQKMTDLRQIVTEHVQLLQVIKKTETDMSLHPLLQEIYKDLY
Measurement Notes: PPAR γ transcriptional activity, luciferase reporter, test compound alone
Assay Conditions: concentration indicating Emax/2, MG63 cells transfected with pSG5-hPPARg and pGV-P2-PPRE, 24 hr
Experimental: The primers of the polymerase chain reaction (hereinafter “PCR”) were designed according to the gene sequence of human PPAR γ 2 (GenBANK accession No. D83233). In order to insert the genes into the BamHI site of the plasmid pSG5 ([…] CLONING SYSTEMS), Bgl II sites were added upstream and downstream of the genes encoding human PPAR γ 2 protein. […]
Give pEC50 for every item shown.
Give bare numbers, as −log10 of the molar value.

CCOC(=O)c1ccc(NC(=O)c2cc([N+](=O)[O-])ccc2Cl)cc1
8.68

Answer for every listed entry: what is its pEC50? The entries follow.
1. O=C(Nc1ccc(S(=O)(=O)Nc2ccc3cn[nH]c3c2)cc1)c1cc([N+](=O)[O-])ccc1Cl
2. CCCCCc1ccc(NC(=O)c2cc([N+](=O)[O-])ccc2Cl)cc1
3. Cc1cnc(NC(=O)c2cc([N+](=O)[O-])ccc2Cl)c(C)c1
4. O=C(Nc1ccc(S(=O)(=O)Nc2ccnn2-c2ccccc2)cc1)c1cc([N+](=O)[O-])ccc1Cl
5. Cc1cnc(NC(=O)c2cc([N+](=O)[O-])ccc2Cl)s1

Result ::
8.06
7.47
8.29
7.24
7.82

// each listed compound needs a value for pEC50
1. CC(C)(C)c1cc(C(=O)Nc2ccc(NC(=O)c3cc([N+](=O)[O-])ccc3Cl)cc2)cc(C(C)(C)C)c1O
2. COC(=O)c1cscc1NC(=O)c1cc([N+](=O)[O-])ccc1Cl
3. Cc1ccc(NC(=O)c2cc([N+](=O)[O-])ccc2Cl)nc1
4. Cc1ccc(S(=O)(=O)Nc2ccc(NC(=O)c3cc([N+](=O)[O-])ccc3Cl)cc2)cc1
5. Cc1ccc(NC(=O)c2cc([N+](=O)[O-])ccc2Cl)cc1
6. O=C(Nc1ccc(NC(=O)c2cc([N+](=O)[O-])ccc2Cl)cc1)c1ccncc1
7. O=C(Nc1nc(-c2ccc(F)c(F)c2)cs1)c1cc([N+](=O)[O-])ccc1Cl
8. O=C(Nc1cccc(O)c1)c1cc([N+](=O)[O-])ccc1Cl

Result ::
1. 6.12
2. 6.92
3. 8.25
4. 7.96
5. 6.66
6. 7.72
7. 7.10
8. 8.38

// each listed compound needs a value for pEC50
1. O=C(Nc1ccccc1-c1ccccc1)c1cc([N+](=O)[O-])ccc1Cl
2. O=C(Nc1nc(-c2ccccc2)cs1)c1cc([N+](=O)[O-])ccc1Cl
3. CCCN(CC)c1ccc(NC(=O)c2cc([N+](=O)[O-])ccc2Cl)cc1

Result ::
1. 6.57
2. 7.60
3. 9.15

* * *

Test system: Rat white adipocytes
Measurement Notes: Inhibition of the differentiation of adipocytes (Oil Red O)
Type: cell-based
Assay Conditions: Rattus norvegicus, Adipocyte, 120 h, 100 nM test compound; 5 days; Oil Red O ABS550; control = 100%, blank = 0%; Table 3; read-out: Rate of Differentiation (%)
So I've got a bunch of compounds here, and I need their activity at 0.1 µM values.
Numbers only, in %.

O=C(Nc1ccc(O)cc1)c1cc([N+](=O)[O-])ccc1Cl
62.4
O=C(Nc1ccc(CCNC(=S)Nc2cccnc2)cc1)c1cc([N+](=O)[O-])ccc1Cl
47.9
Cc1ccc2nc(-c3ccc(NC(=O)c4cc([N+](=O)[O-])ccc4Cl)cc3)sc2c1
51.1
O=C(Nc1ccc(N2CCN(C(=O)c3cccnc3)CC2)cc1)c1cc([N+](=O)[O-])ccc1Cl
39.7

Go through the items and report each one's activity at 0.1 µM.
1. O=C(Nc1nc2cc(Cl)ccc2o1)c1cc([N+](=O)[O-])ccc1Cl
2. CCCCCCN(CCCCC)c1ccc(-c2ccc(NC(=O)c3cc([N+](=O)[O-])ccc3Cl)cc2)cc1

Result ::
1: 88.6; 2: 44.1
